Target: T1, Rb^P H555Y (human, UniProt P06400 380-788, H555Y)
T1 construct: also called variant 29
T1 sequence (looked up): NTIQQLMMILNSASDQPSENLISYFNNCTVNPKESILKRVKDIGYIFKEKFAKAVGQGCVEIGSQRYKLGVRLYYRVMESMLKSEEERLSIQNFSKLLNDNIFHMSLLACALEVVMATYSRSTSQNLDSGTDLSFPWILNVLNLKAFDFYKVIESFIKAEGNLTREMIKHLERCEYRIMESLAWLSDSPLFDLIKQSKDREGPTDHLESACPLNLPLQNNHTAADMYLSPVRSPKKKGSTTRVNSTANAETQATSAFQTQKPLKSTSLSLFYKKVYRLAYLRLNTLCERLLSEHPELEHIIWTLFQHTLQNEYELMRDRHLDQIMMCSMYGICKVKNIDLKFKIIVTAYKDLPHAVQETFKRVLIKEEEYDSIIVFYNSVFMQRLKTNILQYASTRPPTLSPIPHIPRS
Assay: fluorescence polarisation; 37 °C, after the 25 °C reading ramped over 7 min to 37 °C and 2 min incubation; unlabeled Rb^P against 1.5 nM TMR-E2F1^TD or 7.5 nM TMR-E7^LxCxE; 25 mM Tris pH 8.0, 200 mM NaCl, 1 mM DTT, 0.1% Tween-20; apparent Kd
Conditions: both partners purified
No end group written: not given here. TMR = tetramethyl rhodamine dye
For each record, write down the corresponding Kd.
Kindly answer with a numeric value in nM, unit omitted.

What does the data say about its Kd? Entry: {TMR}-GEGIRDLFDCDFGDLTPLD (also called E2F^TD; source: synthetic peptide, bought: GenScript) [TMR-E2F1^TD, peptide of the E2F1 transactivation domain] 366

One more binder: DLYCYEQLN (also: TMR label, position not given here, source: synthetic peptide, bought: GenScript) [TMR-E7^LxCxE, LxCxE peptide of the E7 oncoprotein from HPV] 32
